# tgt: Casein kinase II subunit alpha' (Homo sapiens)
# protocol conditions: at 1 µM
measure: residual activity (%)

>  <smiles>
Oc1n[nH]c2nnc(-c3c(-c4ccccc4)nn4ccccc34)cc12

>  <measure>
residual activity

>  <result number>
110

$$$$
>  <smiles>
Cn1cc(/C=C2\C(=O)Nc3ccc(S(N)(=O)=O)cc32)c2ccccc21

>  <measure>
residual activity

>  <result number>
124

$$$$
>  <smiles>
CCN(CC)C(=O)c1ccc(Nc2nc(OCC3CCCCC3)c3nc[nH]c3n2)cc1

>  <measure>
residual activity

>  <result number>
101

$$$$
>  <smiles>
CNc1cc2c(Nc3cccc(Br)c3)ncnc2cn1

>  <measure>
residual activity

>  <result number>
118

$$$$
>  <smiles>
COc1cc2ncnc(N3CCN(C(=O)Nc4ccc(Oc5ccccc5)cc4)CC3)c2cc1OC

>  <measure>
residual activity

>  <result number>
111

$$$$
>  <smiles>
Cc1cncc2cccc(S(=O)(=O)N3CCCN(C(=O)CN)C[C@H]3C)c12

>  <measure>
residual activity

>  <result number>
128

$$$$
>  <smiles>
NC(=O)c1ccc2[nH]c(-c3ccc(Oc4ccc(Cl)cc4)cc3)nc2c1

>  <measure>
residual activity

>  <result number>
92

$$$$
>  <smiles>
Cc1ccc(NC2=CC(=O)c3sc(C)nc3C2=O)cc1

>  <measure>
residual activity

>  <result number>
100

$$$$
>  <smiles>
CCOc1cc2ncnc(Nc3cccc(Br)c3)c2cc1OCC

>  <measure>
residual activity

>  <result number>
113

$$$$
>  <smiles>
CO[C@H]1[C@@H](OC)C[C@H](C)[C@@H](OC)C2=CC(=O)C=C(NC(=O)/C(C)=C/C=C/[C@H](OC)[C@@H](OC(N)=O)/C(C)=C/[C@@H]1C)C2=O

>  <measure>
residual activity

>  <result number>
99

$$$$
>  <smiles>
Oc1ccc(-c2nc(-c3ccc(F)cc3)c(-c3ccncc3)[nH]2)cc1

>  <measure>
residual activity

>  <result number>
122

$$$$
>  <smiles>
Cn1nc2c3c(cccc31)C(=O)c1ccccc1-2

>  <measure>
residual activity

>  <result number>
99

$$$$
>  <smiles>
COc1ccc(CNc2nc(N(CCO)CCO)nc3c2ncn3C(C)C)cc1

>  <measure>
residual activity

>  <result number>
100

$$$$
>  <smiles>
O=C(Nc1cccc(Nc2nccc(Nc3cccc(C(F)(F)F)c3)n2)c1)C1CC1

>  <measure>
residual activity

>  <result number>
108

$$$$
>  <smiles>
CC[n+]1c(/C=C/N(C)c2ccccc2)n(-c2ccccc2)c2ccc(-c3nc4ccccc4s3)cc21

>  <measure>
residual activity

>  <result number>
134

$$$$
>  <smiles>
CC(C)n1cnc2/c(=N/c3cccc(Cl)c3)nc(NCCO)[nH]c21

>  <measure>
residual activity

>  <result number>
108

$$$$
>  <smiles>
O=c1c2ccccc2[nH]c(=S)n1CCN1CCC(=C(c2ccc(F)cc2)c2ccc(F)cc2)CC1

>  <measure>
residual activity

>  <result number>
125

$$$$
>  <smiles>
Cc1nc(-c2ccccc2)c(-c2ccncc2)o1

>  <measure>
residual activity

>  <result number>
102

$$$$
>  <smiles>
Oc1ccc(Nc2nc(-c3ccc(Cl)cc3)cs2)cc1

>  <measure>
residual activity

>  <result number>
100

$$$$
>  <smiles>
COc1ccc(C(=O)Nc2sc3c(c2C(N)=O)CCCC3)cc1OC

>  <measure>
residual activity

>  <result number>
126

$$$$
>  <smiles>
Oc1c2ccccc2c2c3c(cccc13)N=N2

>  <measure>
residual activity

>  <result number>
59

$$$$
>  <smiles>
O=C1c2ccccc2-[n+]2ccc3c([nH]c4ccccc43)c21

>  <measure>
residual activity

>  <result number>
104

$$$$
>  <smiles>
Cc1ccc(S(=O)(=O)/C=C/C#N)cc1

>  <measure>
residual activity

>  <result number>
114

$$$$

* * *

Catalogue of compounds with associated residual activity
# tgt: Tyrosine-protein kinase Mer (Homo sapiens)
# protocol conditions: at 10 µM

>  <smiles>
CCN(CC)CCCCN1c2ccccc2Oc2ccc(Cl)cc21

>  <residual activity>
62%

$$$$
>  <smiles>
O=C1Nc2ccc(Br)cc2/C1=C\c1cc2c([nH]1)CCCC2

>  <residual activity>
45%

$$$$
>  <smiles>
Oc1c2ccccc2c2c3c(cccc13)N=N2

>  <residual activity>
9%

$$$$
>  <smiles>
NC(=O)c1ccc2[nH]c(-c3ccc(Oc4ccc(Cl)cc4)cc3)nc2c1

>  <residual activity>
95%

$$$$
>  <smiles>
Cc1ccc(S(=O)(=O)/C=C/C#N)cc1

>  <residual activity>
108%

$$$$
>  <smiles>
O=C1NC(=O)/C(=C/c2ccc3c(c2)OC(F)(F)O3)S1

>  <residual activity>
95%

$$$$
>  <smiles>
O=C1NC(=O)c2cc(Nc3ccc(F)cc3)c(Nc3ccc(F)cc3)cc21

>  <residual activity>
93%

$$$$
>  <smiles>
Oc1ccc(-c2nc(-c3ccc(F)cc3)c(-c3ccncc3)[nH]2)cc1

>  <residual activity>
96%

$$$$
>  <smiles>
COc1cc2ncc(-c3ccccc3)nc2cc1OC

>  <residual activity>
62%

$$$$
>  <smiles>
Cc1cccc(-c2[nH]c(C(C)(C)C)nc2-c2ccc3c(c2)OCO3)n1

>  <residual activity>
97%

$$$$

* * *

# tgt: Calcium/calmodulin-dependent protein kinase type II subunit delta (Homo sapiens) (UniProt Q13557)
# Sequence (Q13557 whole entry): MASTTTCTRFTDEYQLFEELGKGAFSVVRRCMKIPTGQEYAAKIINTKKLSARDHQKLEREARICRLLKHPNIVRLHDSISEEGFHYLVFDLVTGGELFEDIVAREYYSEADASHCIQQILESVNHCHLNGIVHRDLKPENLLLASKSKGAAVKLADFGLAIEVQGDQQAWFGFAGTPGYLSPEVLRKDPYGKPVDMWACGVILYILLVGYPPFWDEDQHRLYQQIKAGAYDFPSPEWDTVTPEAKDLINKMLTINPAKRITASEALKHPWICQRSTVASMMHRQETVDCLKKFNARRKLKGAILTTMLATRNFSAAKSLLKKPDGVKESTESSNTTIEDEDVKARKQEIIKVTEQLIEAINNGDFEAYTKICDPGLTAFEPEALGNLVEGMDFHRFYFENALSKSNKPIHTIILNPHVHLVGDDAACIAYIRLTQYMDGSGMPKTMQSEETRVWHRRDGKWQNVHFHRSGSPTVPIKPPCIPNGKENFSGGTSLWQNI
# protocol conditions: at 10 µM

>  <smiles>
CCC(=O)Nc1ccc2ncnc(Nc3cccc(Br)c3)c2c1

>  <unit spec>
%

>  <residual activity>
79

$$$$
>  <smiles>
Oc1ccc(Nc2nc(-c3ccc(Cl)cc3)cs2)cc1

>  <unit spec>
%

>  <residual activity>
98

$$$$
>  <smiles>
O=C1c2ccccc2-[n+]2ccc3c([nH]c4ccccc43)c21

>  <unit spec>
%

>  <residual activity>
81

$$$$
>  <smiles>
Cn1cc(/C=C2\C(=O)Nc3ccc(S(N)(=O)=O)cc32)c2ccccc21

>  <unit spec>
%

>  <residual activity>
7

$$$$
>  <smiles>
N#CCCc1ccc2c(c1)-c1[nH]c3ccc([N+](=O)[O-])cc3c1CC(=O)N2

>  <unit spec>
%

>  <residual activity>
3

$$$$
>  <smiles>
CC#CC(=O)Nc1cc2c(Nc3ccc(F)c(Cl)c3)ncnc2cn1

>  <unit spec>
%

>  <residual activity>
97

$$$$
>  <smiles>
O=C1NC(=O)/C(=C/c2ccc3c(c2)OC(F)(F)O3)S1

>  <unit spec>
%

>  <residual activity>
82

$$$$
>  <smiles>
O=C1Nc2cc(Br)ccc2/C1=C1/Nc2ccccc2/C1=N\O

>  <unit spec>
%

>  <residual activity>
2

$$$$
>  <smiles>
COc1ccc(OC)c2c(=S)c3ccccc3[nH]c12

>  <unit spec>
%

>  <residual activity>
62

$$$$
>  <smiles>
CC(C)n1cnc2/c(=N/c3cccc(Cl)c3)nc(NCCO)[nH]c21

>  <unit spec>
%

>  <residual activity>
11

$$$$
>  <smiles>
COc1ccc(CNc2nc(N(CCO)CCO)nc3c2ncn3C(C)C)cc1

>  <unit spec>
%

>  <residual activity>
54

$$$$

* * *

# tgt: Myosin light chain kinase, smooth muscle (Homo sapiens)
# protocol conditions: at 1 µM
Catalogue of molecules with associated residual activity
measure: residual activity (%)

>  <molecule>
O=Nc1c(-c2c(O)[nH]c3ccccc23)[nH]c2ccccc12

>  <measure>
residual activity

>  <unit spec>
%

>  <result number>
46

$$$$
>  <molecule>
O=[N+]([O-])c1ccc(-c2nc(-c3ccc(F)cc3)c(-c3ccncc3)[nH]2)cc1

>  <measure>
residual activity

>  <unit spec>
%

>  <result number>
100

$$$$
>  <molecule>
Cn1cc(/C=C2\C(=O)Nc3ccc(S(N)(=O)=O)cc32)c2ccccc21

>  <measure>
residual activity

>  <unit spec>
%

>  <result number>
63

$$$$
>  <molecule>
CCC(=O)Nc1ccc2ncnc(Nc3cccc(Br)c3)c2c1

>  <measure>
residual activity

>  <unit spec>
%

>  <result number>
68

$$$$
>  <molecule>
O=C(O)c1ccc2c3c1cccc3c(=O)n1c3ccccc3nc21

>  <measure>
residual activity

>  <unit spec>
%

>  <result number>
88

$$$$
>  <molecule>
CC(=O)O/N=C1\C(=C2\C(=O)Nc3cc(Br)ccc32)Nc2ccccc21

>  <measure>
residual activity

>  <unit spec>
%

>  <result number>
90

$$$$
>  <molecule>
O=C1NC(=O)c2c1c1c3ccccc3[nH]c1c1[nH]c3cc(Br)ccc3c21

>  <measure>
residual activity

>  <unit spec>
%

>  <result number>
27

$$$$
>  <molecule>
Oc1n[nH]c2nnc(-c3c(-c4ccccc4)nn4ccccc34)cc12

>  <measure>
residual activity

>  <unit spec>
%

>  <result number>
84

$$$$
>  <molecule>
Oc1ccc(-c2nc(-c3ccc(F)cc3)c(-c3ccncc3)[nH]2)cc1

>  <measure>
residual activity

>  <unit spec>
%

>  <result number>
111

$$$$
>  <molecule>
CC#CC(=O)Nc1cc2c(Nc3ccc(F)c(Cl)c3)ncnc2cn1

>  <measure>
residual activity

>  <unit spec>
%

>  <result number>
73

$$$$
>  <molecule>
Cc1ccc(S(=O)(=O)/C=C/C#N)cc1

>  <measure>
residual activity

>  <unit spec>
%

>  <result number>
95

$$$$
>  <molecule>
c1ccc(-c2n[nH]cc2-c2ccnc3ccccc23)nc1

>  <measure>
residual activity

>  <unit spec>
%

>  <result number>
77

$$$$
>  <molecule>
Oc1c2ccccc2c2c3c(cccc13)N=N2

>  <measure>
residual activity

>  <unit spec>
%

>  <result number>
29

$$$$
>  <molecule>
O=C1c2ccccc2-[n+]2ccc3c([nH]c4ccccc43)c21

>  <measure>
residual activity

>  <unit spec>
%

>  <result number>
95

$$$$
>  <molecule>
COc1cc2ncnc(Nc3ccc(NC(=O)c4ccccc4)cc3)c2cc1OC

>  <measure>
residual activity

>  <unit spec>
%

>  <result number>
77

$$$$
>  <molecule>
Cc1nc2cc3nc(-c4cccs4)cnc3cc2n1C

>  <measure>
residual activity

>  <unit spec>
%

>  <result number>
82

$$$$
>  <molecule>
c1ccc(-c2n[nH]c3c2oc2ccccc23)cc1

>  <measure>
residual activity

>  <unit spec>
%

>  <result number>
66

$$$$
>  <molecule>
COc1cc2ncc(-c3ccccc3)nc2cc1OC

>  <measure>
residual activity

>  <unit spec>
%

>  <result number>
78

$$$$
>  <molecule>
CO[C@@H]1[C@H](N(C)C(=O)c2ccccc2)C[C@H]2O[C@]1(C)n1c3ccccc3c3c4c(c5c6ccccc6n2c5c31)C(=O)NC4

>  <measure>
residual activity

>  <unit spec>
%

>  <result number>
13

$$$$
>  <molecule>
Nc1nc(Nc2ccc(S(N)(=O)=O)cc2)nn1C(=S)Nc1c(F)cccc1F

>  <measure>
residual activity

>  <unit spec>
%

>  <result number>
79

$$$$
>  <molecule>
O=C1Nc2ccccc2/C1=C1/Nc2ccccc2/C1=N\OCCC(O)CO (configuration not stated)

>  <measure>
residual activity

>  <unit spec>
%

>  <result number>
26

$$$$
>  <molecule>
O=C(Nc1cccc(Nc2nccc(Nc3cccc(C(F)(F)F)c3)n2)c1)C1CC1

>  <measure>
residual activity

>  <unit spec>
%

>  <result number>
54

$$$$

Ref: ChEMBL document CHEMBL2218924
